system.under.test: Suppressor of tumorigenicity 14 protein (Homo sapiens) (UniProt Q9Y5Y6)
Sequence (Q9Y5Y6 whole entry): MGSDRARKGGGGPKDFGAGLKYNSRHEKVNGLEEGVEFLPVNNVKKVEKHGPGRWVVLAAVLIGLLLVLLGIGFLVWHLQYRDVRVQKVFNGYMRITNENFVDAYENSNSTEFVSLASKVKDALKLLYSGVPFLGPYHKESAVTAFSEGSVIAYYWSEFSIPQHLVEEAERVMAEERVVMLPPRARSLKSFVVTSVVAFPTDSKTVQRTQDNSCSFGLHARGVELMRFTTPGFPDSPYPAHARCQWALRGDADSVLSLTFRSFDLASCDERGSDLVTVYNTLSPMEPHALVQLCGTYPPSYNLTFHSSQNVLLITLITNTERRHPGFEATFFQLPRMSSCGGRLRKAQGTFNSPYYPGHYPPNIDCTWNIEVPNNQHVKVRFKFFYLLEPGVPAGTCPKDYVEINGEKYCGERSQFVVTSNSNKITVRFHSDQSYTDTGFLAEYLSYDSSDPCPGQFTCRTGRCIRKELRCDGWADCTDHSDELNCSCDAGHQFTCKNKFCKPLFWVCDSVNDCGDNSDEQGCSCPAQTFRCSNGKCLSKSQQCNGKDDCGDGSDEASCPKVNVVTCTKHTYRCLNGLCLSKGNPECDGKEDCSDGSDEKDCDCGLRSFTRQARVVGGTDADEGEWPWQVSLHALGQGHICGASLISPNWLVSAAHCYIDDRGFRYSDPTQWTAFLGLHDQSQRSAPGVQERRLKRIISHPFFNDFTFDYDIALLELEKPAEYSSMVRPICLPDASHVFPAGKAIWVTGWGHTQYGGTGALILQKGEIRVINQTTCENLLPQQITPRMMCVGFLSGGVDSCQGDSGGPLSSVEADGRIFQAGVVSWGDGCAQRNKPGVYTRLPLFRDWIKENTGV
protocol.text: Inhibition of recombinant human Matriptase at 100 nM by Michaelis-Menten analysis relative to control
The source made the active and inactive calls. The calls are words filed in the database; no cut-off is given here.

# record.smiles, inhibition
data = [
    ("N=C(N)NCCC[C@H](NC(=O)[C@H](CC12CC3CC(CC(C3)C1)C2)NC(=O)[C@H](Cc1cscn1)NC(=O)CCc1ccccc1)C(=O)c1nc2ccccc2s1", "inactive"),
    ("CC[C@H](NC(=O)[C@H](Cc1cscn1)NC(=O)CCc1ccccc1)C(=O)N[C@@H](CCCNC(=N)N)C(=O)c1nc2ccccc2s1", "20%"),
    ("CCCC[C@H](NC(=O)[C@H](Cc1cscn1)NC(=O)CCc1ccccc1)C(=O)N[C@@H](CCCNC(=N)N)C(=O)c1nc2ccccc2s1", "20%"),
    ("N=C(N)NCCC[C@H](NC(=O)[C@H](Cc1ccc(C(=O)c2ccccc2)cc1)NC(=O)[C@H](Cc1cscn1)NC(=O)CCc1ccccc1)C(=O)c1nc2ccccc2s1", "inactive"),
    ("CC(C)[C@H](NC(=O)[C@H](Cc1cscn1)NC(=O)CCc1ccccc1)C(=O)N[C@@H](CCCNC(=N)N)C(=O)c1nc2ccccc2s1", "5%"),
    ("CCC[C@H](NC(=O)[C@H](Cc1cscn1)NC(=O)CCc1ccccc1)C(=O)N[C@@H](CCCNC(=N)N)C(=O)c1nc2ccccc2s1", "20%"),
]

---

Overview of reported Ratio Ki across a group of compounds:
Species: Homo sapiens
protocol.text: Selectivity index, ratio of Ki for binding affinity to recombinant human Matriptase using Boc-QAR-AMC as substrate assessed as inhibition constant by fluorescence based analysis to Ki for binding affinity to recombinant human TMPRSS6 using Boc-QAR-AMC as substrate assessed as inhibition constant by fluorescence based analysis
assay.endpoint: Ratio Ki

# record.smiles, numeric.result
measured = [
    ("CC[C@@H](C)[C@H](NC(=O)[C@H](Cc1cscn1)NC(=O)CCc1ccccc1)C(=O)N[C@@H](CCCNC(=N)N)C(=O)c1nc2ccccc2s1", 6.3),
    ("N=C(N)NCCC[C@H](NC(=O)[C@H](Cc1ccc2ccccc2c1)NC(=O)[C@H](Cc1cscn1)NC(=O)CCc1ccccc1)C(=O)c1nc2ccccc2s1", 6.7),
    ("CC(C)(C)C[C@H](NC(=O)[C@H](Cc1cscn1)NC(=O)CCc1ccccc1)C(=O)N[C@@H](CCCNC(=N)N)C(=O)c1nc2ccccc2s1", 11),
    ("CC[C@H](C)[C@H](NC(=O)[C@H](Cc1cscn1)NC(=O)CCc1ccccc1)C(=O)N[C@@H](CCCNC(=N)N)C(=O)c1nc2ccccc2s1", 9.4),
    ("N=C(N)NCCC[C@H](NC(=O)[C@H](CCc1ccccc1)NC(=O)[C@H](Cc1cscn1)NC(=O)CCc1ccccc1)C(=O)c1nc2ccccc2s1", 1.5),
]

---

system.under.test: Furin (Homo sapiens, UniProt P09958)
Sequence (P09958 whole entry): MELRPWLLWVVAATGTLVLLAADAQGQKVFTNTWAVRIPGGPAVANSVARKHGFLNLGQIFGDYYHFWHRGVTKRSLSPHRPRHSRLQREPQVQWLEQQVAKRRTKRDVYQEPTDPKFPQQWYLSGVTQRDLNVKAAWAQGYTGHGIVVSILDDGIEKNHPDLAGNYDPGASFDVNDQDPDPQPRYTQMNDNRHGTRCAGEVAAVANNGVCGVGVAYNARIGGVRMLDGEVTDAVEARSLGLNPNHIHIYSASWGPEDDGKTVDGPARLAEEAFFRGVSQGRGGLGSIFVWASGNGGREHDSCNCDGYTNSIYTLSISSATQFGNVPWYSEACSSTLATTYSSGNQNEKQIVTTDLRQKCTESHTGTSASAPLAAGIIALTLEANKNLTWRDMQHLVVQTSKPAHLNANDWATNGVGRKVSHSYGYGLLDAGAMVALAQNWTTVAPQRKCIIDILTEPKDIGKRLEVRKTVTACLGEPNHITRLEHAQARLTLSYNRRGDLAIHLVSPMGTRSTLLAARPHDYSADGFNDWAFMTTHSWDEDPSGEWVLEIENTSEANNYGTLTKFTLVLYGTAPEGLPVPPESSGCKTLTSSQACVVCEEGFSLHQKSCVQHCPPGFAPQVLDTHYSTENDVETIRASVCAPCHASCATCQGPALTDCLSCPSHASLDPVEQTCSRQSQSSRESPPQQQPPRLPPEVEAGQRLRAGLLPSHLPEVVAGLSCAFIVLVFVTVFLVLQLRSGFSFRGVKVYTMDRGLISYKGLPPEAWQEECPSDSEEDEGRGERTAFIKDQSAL
protocol.text: Inhibition of recombinant human furin using Boc-RVRR-AMC as substrate assessed as inhibition constant by fluorescence based analysis
Overview of reported Ki across a group of compounds:

# record.smiles, Ki
rows = [
    ("N=C(N)NCCC[C@H](NC(=O)[C@@H](NC(=O)[C@H](Cc1cscn1)NC(=O)CCc1ccccc1)C1CCCCC1)C(=O)c1nc2ccccc2s1", "> 10 µM"),
    ("N=C(N)NCCC[C@H](NC(=O)[C@@H](NC(=O)[C@H](CCc1ccccc1)NC(=O)CCc1ccccc1)C1CCCCC1)C(=O)c1nc2ccccc2s1", "> 10 µM"),
    ("CC(C)[C@H](NC(=O)[C@H](Cc1cscn1)NC(=O)CCc1ccccc1)C(=O)N[C@@H](CCCNC(=N)N)C(=O)c1nc2ccccc2s1", "> 10 µM"),
]

---

Species on record: Homo sapiens
protocol.text: Selectivity index, ratio of Ki for binding affinity to recombinant human Matriptase using Boc-QAR-AMC as substrate assessed as inhibition constant by fluorescence based analysis to Ki for binding affinity to recombinant human TMPRSS6 using Boc-QAR-AMC as substrate assessed as inhibition constant by fluorescence based analysis
assay.endpoint: Ratio Ki

# record.smiles, numeric.result
rows = [
    ("N=C(N)NCCC[C@H](NC(=O)[C@@H](NC(=O)[C@H](Cc1cscn1)NC(=O)CCc1ccccc1)c1ccccc1)C(=O)c1nc2ccccc2s1", 2.6),
    ("N=C(N)NCCC[C@H](NC(=O)[C@H](Cc1ccc(OCc2ccccc2)cc1)NC(=O)[C@H](Cc1cscn1)NC(=O)CCc1ccccc1)C(=O)c1nc2ccccc2s1", 4.8),
    ("N=C(N)NCCC[C@H](NC(=O)[C@H](CC1CCCCC1)NC(=O)[C@H](Cc1cscn1)NC(=O)CCc1ccccc1)C(=O)c1nc2ccccc2s1", 2.3),
    ("N=C(N)NCCC[C@H](NC(=O)[C@H](Cc1ccccc1)NC(=O)[C@H](Cc1cscn1)NC(=O)CCc1ccccc1)C(=O)c1nc2ccccc2s1", 2.9),
    ("CC(C)C[C@H](NC(=O)[C@H](Cc1cscn1)NC(=O)CCc1ccccc1)C(=O)N[C@@H](CCCNC(=N)N)C(=O)c1nc2ccccc2s1", 3.3),
    ("N=C(N)NCCC[C@H](NC(=O)[C@H](CCC1CCCCC1)NC(=O)[C@H](Cc1cscn1)NC(=O)CCc1ccccc1)C(=O)c1nc2ccccc2s1", 1.5),
]

---

system.under.test: Furin (Homo sapiens)
protocol.text: Inhibition of furin (unknown origin)

# record.smiles, system.under.test, Ki
measured = [
    ("CC(C)[C@H](NC(=O)[C@H](Cc1cscn1)NC(=O)CCc1ccccc1)C(=O)N[C@@H](CCCNC(=N)N)C(=O)c1nc2ccccc2s1", "Furin (Homo sapiens)", "> 30 µM"),
]

---

system.under.test: UniProt:Q8IU80
Sequence (whole entry): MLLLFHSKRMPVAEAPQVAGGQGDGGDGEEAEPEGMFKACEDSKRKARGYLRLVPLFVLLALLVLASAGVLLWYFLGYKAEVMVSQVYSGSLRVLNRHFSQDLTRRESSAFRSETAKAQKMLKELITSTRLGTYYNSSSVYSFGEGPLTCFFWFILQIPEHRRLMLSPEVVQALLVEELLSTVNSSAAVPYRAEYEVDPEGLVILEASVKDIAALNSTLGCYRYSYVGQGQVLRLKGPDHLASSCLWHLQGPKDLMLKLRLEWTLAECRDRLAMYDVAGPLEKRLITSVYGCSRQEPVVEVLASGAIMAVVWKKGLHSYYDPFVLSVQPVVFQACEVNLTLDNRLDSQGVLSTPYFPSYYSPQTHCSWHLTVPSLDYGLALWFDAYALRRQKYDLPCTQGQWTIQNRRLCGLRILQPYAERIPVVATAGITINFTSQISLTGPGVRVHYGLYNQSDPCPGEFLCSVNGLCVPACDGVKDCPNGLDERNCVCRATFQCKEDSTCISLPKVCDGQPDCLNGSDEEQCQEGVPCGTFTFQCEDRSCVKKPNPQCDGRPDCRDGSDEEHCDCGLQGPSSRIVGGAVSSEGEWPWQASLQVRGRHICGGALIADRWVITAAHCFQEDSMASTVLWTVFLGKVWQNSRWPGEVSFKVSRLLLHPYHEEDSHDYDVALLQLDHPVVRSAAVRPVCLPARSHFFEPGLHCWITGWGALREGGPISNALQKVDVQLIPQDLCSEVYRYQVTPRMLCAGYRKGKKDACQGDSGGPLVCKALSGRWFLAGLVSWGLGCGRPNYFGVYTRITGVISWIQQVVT
protocol.text: Inhibition of recombinant human TMPRSS6 at 100 nM by Michaelis-Menten analysis relative to control
Active and inactive are the calls of the source. The calls are words filed in the database; no cut-off is given here.
assay.endpoint: inhibition

# record.smiles, assay.endpoint, result
measured = [
    ("N=C(N)NCCC[C@H](NC(=O)[C@H](CC12CC3CC(CC(C3)C1)C2)NC(=O)[C@H](Cc1cscn1)NC(=O)CCc1ccccc1)C(=O)c1nc2ccccc2s1", "inhibition", "inactive"),
    ("CCC[C@H](NC(=O)[C@H](Cc1cscn1)NC(=O)CCc1ccccc1)C(=O)N[C@@H](CCCNC(=N)N)C(=O)c1nc2ccccc2s1", "inhibition", "20%"),
    ("CC[C@H](NC(=O)[C@H](Cc1cscn1)NC(=O)CCc1ccccc1)C(=O)N[C@@H](CCCNC(=N)N)C(=O)c1nc2ccccc2s1", "inhibition", "20%"),
    ("N=C(N)NCCC[C@H](NC(=O)[C@H](Cc1ccc(C(=O)c2ccccc2)cc1)NC(=O)[C@H](Cc1cscn1)NC(=O)CCc1ccccc1)C(=O)c1nc2ccccc2s1", "inhibition", "inactive"),
    ("CC(C)[C@H](NC(=O)[C@H](Cc1cscn1)NC(=O)CCc1ccccc1)C(=O)N[C@@H](CCCNC(=N)N)C(=O)c1nc2ccccc2s1", "inhibition", "1%"),
    ("CCCC[C@H](NC(=O)[C@H](Cc1cscn1)NC(=O)CCc1ccccc1)C(=O)N[C@@H](CCCNC(=N)N)C(=O)c1nc2ccccc2s1", "inhibition", "20%"),
]

These data points were gathered from ChEMBL document CHEMBL5550199.
